assayed target: RhlR (Pseudomonas aeruginosa, UniProt P54292)
Construct: expressed in transfected cells; host or cells: E. coli JLD271 (K-12 ΔlacX74 sdiA271::Cam) carrying pJN105-R2 (RhlR expression) and pSC11-rhlI (rhlI'-lacZ reporter)
Sequence (P54292 whole entry): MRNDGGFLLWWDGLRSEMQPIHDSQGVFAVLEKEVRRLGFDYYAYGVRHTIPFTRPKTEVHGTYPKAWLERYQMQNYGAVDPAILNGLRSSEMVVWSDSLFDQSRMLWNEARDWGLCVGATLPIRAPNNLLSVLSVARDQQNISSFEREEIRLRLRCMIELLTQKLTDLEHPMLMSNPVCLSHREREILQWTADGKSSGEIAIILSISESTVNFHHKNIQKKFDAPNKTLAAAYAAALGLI
measurement protocol: P. aeruginosa RhlR reporter agonism assay
Assay type: cell-based
recorded endpoint: pEC50
Here pEC50 is given on a logarithmic scale as minus log10 of the concentration in mol/L.

What measured pEC50 goes with CCCC(=O)N[C@H]1CCOC1=O [BHL, N-butanoyl L-homoserine lactone, reference compound] ? 5.35

---

pIC50: recorded values
assayed target: RhlR (Pseudomonas aeruginosa)
Construct: expressed in transfected cells; host or cells: E. coli JLD271 (K-12 ΔlacX74 sdiA271::Cam) carrying pJN105-R2 (RhlR expression) and pSC11-rhlI (rhlI'-lacZ reporter)
measurement protocol: E. coli (JLD271) RhlR reporter antagonism assay, in competition with BHL
Assay type: cell-based
measurement conditions: IC50, E. coli JLD271 RhlR reporter; against 10 μM BHL
Here pIC50 is given on a logarithmic scale as minus log10 of the concentration in mol/L.

O=C1OCC[C@@H]1NS(=O)(=O)c1ccc(F)c(F)c1 [Compound 59, 3,4-di-F BSHL] :: 4.06
O=C1OCC[C@@H]1NS(=O)(=O)c1cc(Cl)ccc1Cl [Compound 90, 2,5-di-Cl BSHL] :: 2.96

Moving on to the next compound.
What measured pIC50 goes with O=C1OCC[C@@H]1NS(=O)(=O)c1ccc(Br)c(Cl)c1 [Compound 73, 3-Cl, 4-Br BSHL] ? 3.93
